- TARGET_SYSTEM: EGFR WT (Ba/F3 cells) (Homo sapiens, UniProt P00533)
- Sequence (P00533 25-1210): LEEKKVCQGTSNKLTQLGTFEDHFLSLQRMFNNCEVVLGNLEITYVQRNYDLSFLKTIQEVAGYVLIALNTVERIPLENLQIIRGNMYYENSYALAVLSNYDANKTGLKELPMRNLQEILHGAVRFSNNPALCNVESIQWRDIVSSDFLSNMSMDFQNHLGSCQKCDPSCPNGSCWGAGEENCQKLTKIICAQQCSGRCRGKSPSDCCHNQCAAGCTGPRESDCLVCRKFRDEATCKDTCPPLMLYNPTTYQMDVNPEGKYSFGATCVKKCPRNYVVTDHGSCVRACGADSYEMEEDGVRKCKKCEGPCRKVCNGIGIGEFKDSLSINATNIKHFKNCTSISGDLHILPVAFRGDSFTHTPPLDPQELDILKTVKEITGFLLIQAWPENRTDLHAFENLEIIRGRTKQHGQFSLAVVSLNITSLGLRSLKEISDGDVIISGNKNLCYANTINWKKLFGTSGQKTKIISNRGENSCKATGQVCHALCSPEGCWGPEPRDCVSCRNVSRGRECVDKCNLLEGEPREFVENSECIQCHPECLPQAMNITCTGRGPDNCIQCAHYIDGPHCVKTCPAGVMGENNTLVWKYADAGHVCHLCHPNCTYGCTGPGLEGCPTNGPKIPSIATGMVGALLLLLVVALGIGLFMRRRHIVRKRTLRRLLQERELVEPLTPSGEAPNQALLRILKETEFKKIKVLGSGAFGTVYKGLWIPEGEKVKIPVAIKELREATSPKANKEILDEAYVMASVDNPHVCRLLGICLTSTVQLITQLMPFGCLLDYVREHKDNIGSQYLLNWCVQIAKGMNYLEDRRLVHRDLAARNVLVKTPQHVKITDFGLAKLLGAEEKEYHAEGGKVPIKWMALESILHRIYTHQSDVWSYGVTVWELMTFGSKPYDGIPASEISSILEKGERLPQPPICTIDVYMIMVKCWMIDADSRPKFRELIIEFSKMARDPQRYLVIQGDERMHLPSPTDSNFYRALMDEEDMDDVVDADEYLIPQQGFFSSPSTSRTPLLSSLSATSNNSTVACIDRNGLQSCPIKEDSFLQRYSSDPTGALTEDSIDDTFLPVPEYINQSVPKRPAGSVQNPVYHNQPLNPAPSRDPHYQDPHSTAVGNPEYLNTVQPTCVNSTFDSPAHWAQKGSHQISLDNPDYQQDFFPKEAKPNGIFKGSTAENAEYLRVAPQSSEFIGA
- ASSAY_METHOD_TEXT: Inhibitor activity on EGFR-dependent cell growth (CellTiter-Glo, 72 h), Ba/F3 EGFR WT
- SETTINGS: read-out: BaF3 WT IC50
Entries and their IC50 values follow.

Previously resolved entries follow.
COc1c(F)cccc1Nc1c(-c2ccnc3cc(F)cnc23)[nH]c2c1C(=O)NCC2 [Compound 825]: > 1000 nM
C=CC(=O)N1CCC2(CC1)CNC(=O)c1c2[nH]c(-c2ccncc2F)c1Nc1cccc(F)c1SC [Compound 560]: 100 to 1000 nM

Param item = COc1ncc2nccc(-c3[nH]c4c(c3Nc3cccc(C)c3F)C(=O)NCC4)c2n1 [Compound 804] ; retrieve measured IC50.
100 to 1000 nM

Param item = COc1c(Cl)cccc1Nc1c(-c2ccnc(Nc3cc(C)n(C)n3)n2)[nH]c2c1C(=O)NCC2 [compound 513] ; retrieve measured IC50.
< 100 nM

Param item = COc1c(F)cccc1Nc1c(-c2ccncc2F)[nH]c2c1C(=O)NC[C@@H]2C[C@H]1CCO1 [Compound 422c] ; retrieve measured IC50.
> 1000 nM

Param item = COc1c(Cl)cccc1Nc1c(-c2ccnc(Nc3nnn(C)c3C)n2)[nH]c2c1C(=O)NCC2 [compound 607] ; retrieve measured IC50.
> 1000 nM

Param item = COc1c(Cl)cccc1Nc1c(-c2ccnc(NCc3ccccc3)n2)[nH]c2c1C(=O)NCC2 [compound 209] ; retrieve measured IC50.
> 1000 nM

Param item = COc1c(Cl)cccc1Nc1c(-c2ccnc(NC[C@@H]3COCCO3)n2)[nH]c2c1C(=O)NCC2 [compound 724] ; retrieve measured IC50.
> 1000 nM

====

- TARGET_SYSTEM: EGFR exon 20 FQEA Ins A763_V764 (Ba/F3 cells) (Homo sapiens, UniProt P00533, INS763FQEA)
- Construct: expressed in transfected cells; host or cells: Ba/F3 (murine pro-B cells), retroviral transduction, puromycin selection, IL3-independent pool
- Sequence (P00533 with tags, fused parts or gaps INS763FQEA): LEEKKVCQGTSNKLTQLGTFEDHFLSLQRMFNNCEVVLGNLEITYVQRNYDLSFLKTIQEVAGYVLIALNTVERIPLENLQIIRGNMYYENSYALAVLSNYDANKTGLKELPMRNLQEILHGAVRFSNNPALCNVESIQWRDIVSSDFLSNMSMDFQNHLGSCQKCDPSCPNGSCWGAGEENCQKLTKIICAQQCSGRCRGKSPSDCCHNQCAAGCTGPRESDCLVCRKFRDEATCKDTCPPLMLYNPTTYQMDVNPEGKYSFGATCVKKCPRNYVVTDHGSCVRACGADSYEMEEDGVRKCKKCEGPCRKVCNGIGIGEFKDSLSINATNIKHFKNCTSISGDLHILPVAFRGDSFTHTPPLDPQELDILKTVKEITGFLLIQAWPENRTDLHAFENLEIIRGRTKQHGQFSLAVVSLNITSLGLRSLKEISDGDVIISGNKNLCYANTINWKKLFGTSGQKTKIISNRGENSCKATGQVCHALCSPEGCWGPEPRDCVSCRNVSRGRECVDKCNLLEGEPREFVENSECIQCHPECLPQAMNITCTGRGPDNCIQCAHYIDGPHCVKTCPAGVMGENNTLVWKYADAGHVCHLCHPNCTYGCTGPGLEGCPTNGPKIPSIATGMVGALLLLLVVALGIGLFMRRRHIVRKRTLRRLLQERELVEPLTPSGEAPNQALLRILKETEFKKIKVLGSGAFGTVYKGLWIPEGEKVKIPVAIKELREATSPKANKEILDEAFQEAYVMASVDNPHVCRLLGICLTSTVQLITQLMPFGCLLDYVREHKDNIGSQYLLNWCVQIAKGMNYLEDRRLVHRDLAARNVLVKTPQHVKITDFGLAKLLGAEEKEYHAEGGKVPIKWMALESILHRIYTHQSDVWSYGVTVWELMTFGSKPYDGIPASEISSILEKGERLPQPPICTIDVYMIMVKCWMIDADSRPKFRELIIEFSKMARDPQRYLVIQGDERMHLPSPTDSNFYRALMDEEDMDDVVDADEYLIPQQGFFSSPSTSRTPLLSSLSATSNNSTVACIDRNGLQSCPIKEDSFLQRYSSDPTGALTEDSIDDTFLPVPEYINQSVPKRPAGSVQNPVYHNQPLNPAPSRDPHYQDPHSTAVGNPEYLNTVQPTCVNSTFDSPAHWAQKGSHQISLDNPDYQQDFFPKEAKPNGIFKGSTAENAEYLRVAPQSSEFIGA
- ASSAY_METHOD_TEXT: Inhibitor activity on EGFR-dependent cell growth (CellTiter-Glo, 72 h), Ba/F3 EGFR exon 20 FQEA Ins
- Assay type: cell-based
- SETTINGS: read-out: BaF3 FQEA IC50
MEASURE_NAME: IC50

Previously resolved entries follow.
Nc1nccc(-c2[nH]c3c(c2Nc2cccc(C(F)(F)F)c2)C(=O)NCC3)n1: 0.1 to 1 µM
COc1c(Cl)cccc1Nc1c(-c2ccnc3[nH]c(=O)oc23)[nH]c2c1C(=O)NCC2: > 1 µM
CCOc1c(Cl)cccc1Nc1c(-c2ccnc(N)n2)[nH]c2c1C(=O)NCC2: > 1 µM
COc1cccc(Nc2c(-c3ccnc(N)n3)[nH]c3c2C(=O)NCC3)c1C: > 1 µM
COc1c(Cl)cccc1Nc1c(-c2ccnc3ccc(OCC(F)(F)F)nc23)[nH]c2c1C(=O)NCC2: 0.1 to 1 µM

Short answer please: IC50, EGFR exon 20 FQEA Ins A763_V764 (Ba/F3 cells) (Homo sapiens, UniProt P00533, INS763FQEA), entry COc1ccc2nccc(-c3[nH]c4c(c3Nc3cccc(F)c3OC)C(=O)NCC4)c2n1
< 0.1 µM

Short answer please: IC50, EGFR exon 20 FQEA Ins A763_V764 (Ba/F3 cells) (Homo sapiens, UniProt P00533, INS763FQEA), entry COc1cc2nccc(-c3[nH]c4c(c3Nc3cccc(Cl)c3OC)C(=O)NCC4)c2nc1OCCN(C)C
< 0.1 µM

Short answer please: IC50, EGFR exon 20 FQEA Ins A763_V764 (Ba/F3 cells) (Homo sapiens, UniProt P00533, INS763FQEA), entry COc1c(Cl)cccc1Nc1c(-c2ccnc3ccc(OCCCN4CCOCC4)nc23)[nH]c2c1C(=O)NCC2
< 0.1 µM

====

- TARGET_SYSTEM: EGFR exon 20 ASV Ins V769_D770 (Ba/F3 cells) (Homo sapiens, UniProt P00533, INS769ASV)
- Construct: expressed in transfected cells; host or cells: Ba/F3 (murine pro-B cells), retroviral transduction, puromycin selection, IL3-independent pool
- Sequence (P00533 with tags, fused parts or gaps INS769ASV): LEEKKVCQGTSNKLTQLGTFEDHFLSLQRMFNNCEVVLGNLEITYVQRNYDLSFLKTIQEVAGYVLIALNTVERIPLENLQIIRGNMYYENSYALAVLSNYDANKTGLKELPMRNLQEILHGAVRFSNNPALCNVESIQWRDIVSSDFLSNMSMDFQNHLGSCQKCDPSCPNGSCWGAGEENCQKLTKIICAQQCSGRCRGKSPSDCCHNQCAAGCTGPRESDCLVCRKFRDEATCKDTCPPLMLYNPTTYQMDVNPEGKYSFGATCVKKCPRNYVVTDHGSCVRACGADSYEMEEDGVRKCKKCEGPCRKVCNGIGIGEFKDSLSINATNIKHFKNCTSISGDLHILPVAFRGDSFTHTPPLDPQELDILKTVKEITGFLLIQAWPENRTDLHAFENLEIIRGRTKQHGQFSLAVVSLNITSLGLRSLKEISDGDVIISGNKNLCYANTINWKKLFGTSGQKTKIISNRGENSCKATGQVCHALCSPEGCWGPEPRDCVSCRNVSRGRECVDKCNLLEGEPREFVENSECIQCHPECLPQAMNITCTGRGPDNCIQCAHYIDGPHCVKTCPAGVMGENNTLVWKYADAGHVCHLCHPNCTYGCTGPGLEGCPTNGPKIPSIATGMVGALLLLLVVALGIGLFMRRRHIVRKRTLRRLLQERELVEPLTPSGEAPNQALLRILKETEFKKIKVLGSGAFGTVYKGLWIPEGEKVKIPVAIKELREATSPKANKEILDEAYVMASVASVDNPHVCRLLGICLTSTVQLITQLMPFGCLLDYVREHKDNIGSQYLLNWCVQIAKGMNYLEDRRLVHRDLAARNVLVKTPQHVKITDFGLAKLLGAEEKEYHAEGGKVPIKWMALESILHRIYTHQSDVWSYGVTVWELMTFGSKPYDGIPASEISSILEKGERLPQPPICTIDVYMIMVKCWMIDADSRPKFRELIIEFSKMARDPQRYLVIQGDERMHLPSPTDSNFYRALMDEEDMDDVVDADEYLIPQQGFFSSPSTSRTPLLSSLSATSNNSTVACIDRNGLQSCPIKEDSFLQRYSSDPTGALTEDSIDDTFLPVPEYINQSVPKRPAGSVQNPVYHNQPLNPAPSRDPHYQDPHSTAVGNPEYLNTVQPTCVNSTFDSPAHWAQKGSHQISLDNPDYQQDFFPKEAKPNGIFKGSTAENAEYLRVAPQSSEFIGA
- ASSAY_METHOD_TEXT: Inhibitor activity on EGFR-dependent cell growth (CellTiter-Glo, 72 h), Ba/F3 EGFR exon 20 ASV Ins
- Assay type: cell-based
- SETTINGS: read-out: BaF3 ASV IC50
pIC50: −log10 of the molar value.
Entries and their pIC50 values follow.

Previously resolved entries follow.
COc1c(Cl)cccc1Nc1c(-c2ccnc3ccc(OC4CC4)nc23)[nH]c2c1C(=O)NCC2 [compound 677]: > 7.00
COCC[C@H]1CNC(=O)c2c(Nc3cccc(Cl)c3OC)c(-c3ccncn3)n(C)c21 (single isomer, unassigned) [Compound 797]: < 6.00

Short answer please: pIC50, EGFR exon 20 ASV Ins V769_D770 (Ba/F3 cells) (Homo sapiens, UniProt P00533, INS769ASV), entry COc1c(Cl)cccc1Nc1c(-c2ccnc3cnc(C4CC4)nc23)[nH]c2c1C(=O)NCC2 [Compound 776]
> 7.00

Short answer please: pIC50, EGFR exon 20 ASV Ins V769_D770 (Ba/F3 cells) (Homo sapiens, UniProt P00533, INS769ASV), entry COc1c(Cl)cccc1Nc1c(-c2ccncc2F)[nH]c2c1C(=O)NCC2C[C@H]1CO[C@H](CN(C)C)CO1 (single isomer, unassigned) [Compound 565]
6.00 to 7.00

Short answer please: pIC50, EGFR exon 20 ASV Ins V769_D770 (Ba/F3 cells) (Homo sapiens, UniProt P00533, INS769ASV), entry COc1ccc2nccc(-c3[nH]c4c(c3Nc3cccc(F)c3C)C(=O)NCC4)c2n1 [Compound 684]
> 7.00

Short answer please: pIC50, EGFR exon 20 ASV Ins V769_D770 (Ba/F3 cells) (Homo sapiens, UniProt P00533, INS769ASV), entry COc1c(F)cccc1Nc1c(-c2ccnc(C)n2)[nH]c2c1C(=O)NCC21CCN(C(=O)/C=C/CN(C)C)CC1 [compound 649]
6.00 to 7.00

Short answer please: pIC50, EGFR exon 20 ASV Ins V769_D770 (Ba/F3 cells) (Homo sapiens, UniProt P00533, INS769ASV), entry COc1ncc2nccc(-c3[nH]c4c(c3Nc3cccc(F)c3F)C(=O)NCC4)c2n1 [Compound 805]
6.00 to 7.00

Short answer please: pIC50, EGFR exon 20 ASV Ins V769_D770 (Ba/F3 cells) (Homo sapiens, UniProt P00533, INS769ASV), entry COc1c(Cl)cccc1Nc1c(-c2ccncc2F)[nH]c2c(C[C@@H]3COCCO3)c[nH]c(=O)c12 [compound 657]
> 7.00

Short answer please: pIC50, EGFR exon 20 ASV Ins V769_D770 (Ba/F3 cells) (Homo sapiens, UniProt P00533, INS769ASV), entry Nc1nccc(-c2[nH]c3c(c2Nc2cccc(F)c2F)C(=O)NCC3)n1 [compound 202]
6.00 to 7.00

Short answer please: pIC50, EGFR exon 20 ASV Ins V769_D770 (Ba/F3 cells) (Homo sapiens, UniProt P00533, INS769ASV), entry COc1c(Cl)cccc1Nc1c(-c2ccnc3[nH]ccc23)[nH]c2c1C(=O)NCC2 [compound 218]
6.00 to 7.00

Short answer please: pIC50, EGFR exon 20 ASV Ins V769_D770 (Ba/F3 cells) (Homo sapiens, UniProt P00533, INS769ASV), entry COc1c(F)cccc1Nc1c(-c2ccnc3ccc(C)nc23)[nH]c2c1C(=O)NCC2 [Compound 809]
> 7.00

Short answer please: pIC50, EGFR exon 20 ASV Ins V769_D770 (Ba/F3 cells) (Homo sapiens, UniProt P00533, INS769ASV), entry COCCNc1ccc2nccc(-c3[nH]c4c(c3Nc3cccc(Cl)c3OC)C(=O)NCC4)c2n1 [Compound 680, formic acid]
> 7.00

Short answer please: pIC50, EGFR exon 20 ASV Ins V769_D770 (Ba/F3 cells) (Homo sapiens, UniProt P00533, INS769ASV), entry Cc1c(F)cccc1Nc1c(-c2ccnc(N)c2F)[nH]c2c1C(=O)NCC2 [Compound 692]
6.00 to 7.00

Short answer please: pIC50, EGFR exon 20 ASV Ins V769_D770 (Ba/F3 cells) (Homo sapiens, UniProt P00533, INS769ASV), entry COc1c(F)cccc1Nc1c(-c2ccncc2F)[nH]c2c1C(=O)NC[C@@H]2CC1COC1 [469b]
< 6.00

Short answer please: pIC50, EGFR exon 20 ASV Ins V769_D770 (Ba/F3 cells) (Homo sapiens, UniProt P00533, INS769ASV), entry Nc1nccc(-c2[nH]c3c(c2Nc2cccc4scnc24)C(=O)NCC3)n1 [compound 718, trifluoroacetic acid]
< 6.00
